Values compiled from PubChem BioAssay (NCATS).

- Test system: CP191
- test details: qHTS profiling for inhibitors of Plasmodium falciparum proliferation (AID 504749); note: nearly all actives have a fitted effect of over 60% in size
- assay conditions: P. falciparum in erythrocytes, SYBR Green DNA, 72 h; series mostly up to 28.7 µM
Results filed as inconclusive are left out. Calls of active or inactive are those of the source. Calls come from the whole dose curve; as a rule, active = well fitted inhibition curve with a large enough effect; inconclusive = small, poorly fitted or top-dose-only effect; inactive = flat fitted curve, though single readings scatter.
Classes used: YES for active, NO for inactive

[[record]]
molecule = "CC(=O)Nc1cc([As](=O)(O)O)ccc1O"
class_assignment = "NO"

[[record]]
molecule = "O=C1NCN(c2ccccc2)C12CCN(CC1COc3ccccc3O1)CC2 (centres undefined)"
class_assignment = "NO"

[[record]]
molecule = "CCN(CC)CCOC(=O)C(O)(c1ccccc1)c1ccccc1"
class_assignment = "NO"

[[record]]
molecule = "CCOC(=O)C1(c2ccccc2)CCN(CCC(C#N)(c2ccccc2)c2ccccc2)CC1"
class_assignment = "YES"

[[record]]
molecule = "Cc1ccc(S(=O)(=O)N[C@@H](CCCCN)C(=O)CCl)cc1"
class_assignment = "YES"

[[record]]
molecule = "O=C(O)c1ccc2[nH]cc(CCCCN3CC=C(c4ccccc4)CC3)c2c1"
class_assignment = "NO"

[[record]]
molecule = "CC(C)(C)CC(C)(C)c1ccc(O)cc1"
class_assignment = "NO"

[[record]]
molecule = "O=P1(NCCCl)OCCCN1CCCl (centres undefined)"
class_assignment = "NO"

[[record]]
molecule = "Fc1ccc(C(OCCN2CCN(CCCc3ccccc3)CC2)c2ccc(F)cc2)cc1"
class_assignment = "YES"

[[record]]
molecule = "Nc1ccncc1"
class_assignment = "NO"

[[record]]
molecule = "Oc1ccccc1-c1ccccc1"
class_assignment = "NO"

[[record]]
molecule = "CCN(C(C)=O)c1cccc(-c2ccnc3c(C#N)cnn23)c1"
class_assignment = "NO"

[[record]]
molecule = "CC[C@@H](CO)NC(=O)[C@@H]1C=C2c3cccc4[nH]cc(c34)C[C@H]2N(C)C1"
class_assignment = "NO"

[[record]]
molecule = "NN=C(N)N"
class_assignment = "NO"

[[record]]
molecule = "CC(CCc1ccccc1)NC(C)C(O)c1ccc(O)cc1 (centres undefined)"
class_assignment = "NO"

[[record]]
molecule = "CC(C)(N)Cc1ccc(Cl)cc1"
class_assignment = "NO"

[[record]]
molecule = "CN1C(=S)CN=C(c2ccccc2)c2cc(Cl)ccc21"
class_assignment = "NO"

[[record]]
molecule = "O=[N+]([O-])c1cc([As](=O)(O)O)ccc1O"
class_assignment = "YES"

[[record]]
molecule = "CCOP(=S)(OCC)Oc1cc(C)nc(C(C)C)n1"
class_assignment = "NO"

[[record]]
molecule = "CC(=O)[C@H]1CC[C@H]2[C@@H]3CC[C@H]4C[C@](C)(O)CC[C@]4(C)[C@H]3CC[C@]12C"
class_assignment = "NO"

[[record]]
molecule = "OCCOc1ccccc1"
class_assignment = "NO"

[[record]]
molecule = "CC(C)CC(N(C)C)C1(c2ccc(Cl)cc2)CCC1 (centres undefined)"
class_assignment = "NO"

[[record]]
molecule = "CC[N+](CC)(CC)CC"
class_assignment = "NO"

[[record]]
molecule = "CC(=O)[C@H]1CC[C@H]2[C@@H]3CC[C@H]4C[C@H](O)CC[C@]4(C)[C@H]3C(=O)C[C@]12C"
class_assignment = "NO"

[[record]]
molecule = "c1ccc2c(c1)OCC(C1=NCCN1)O2 (centres undefined)"
class_assignment = "NO"

[[record]]
molecule = "C=C(C)[C@H]1Cc2c(ccc3c2O[C@@H]2COc4cc(OC)c(OC)cc4[C@@H]2C3=O)O1"
class_assignment = "NO"

[[record]]
molecule = "c1ccc2c(c1)Nc1ccccc1S2"
class_assignment = "YES"

[[record]]
molecule = "Oc1cc(Cl)ccc1Oc1ccc(Cl)cc1Cl"
class_assignment = "YES"

[[record]]
molecule = "CC1NCCOC1c1ccccc1 (centres undefined)"
class_assignment = "NO"

[[record]]
molecule = "NCC1(CC(=O)O)CCCCC1"
class_assignment = "NO"

[[record]]
molecule = "NCCc1cc(O)c(O)cc1O"
class_assignment = "NO"

[[record]]
molecule = "c1ccc(C2CC2)c(OCC2=NCCN2)c1"
class_assignment = "NO"

[[record]]
molecule = "CCC(COC(=O)c1cc(OC)c(OC)c(OC)c1)(c1ccccc1)N(C)C (centres undefined)"
class_assignment = "NO"

[[record]]
molecule = "CCC(C(N)=O)N1CCCC1=O (centres undefined)"
class_assignment = "NO"

[[record]]
molecule = "C#CCOC(C(=O)OCCN(C)C)(c1ccccc1)c1ccccc1"
class_assignment = "NO"

[[record]]
molecule = "NP(N)(=O)NC(=O)c1ccc(F)cc1"
class_assignment = "NO"

[[record]]
molecule = "CC(C)=CC1C(C(=O)OCc2cccc(Oc3ccccc3)c2)C1(C)C (centres undefined)"
class_assignment = "NO"

[[record]]
molecule = "Cn1c(CCCC(=O)O)nc2cc(N(CCCl)CCCl)ccc21"
class_assignment = "NO"

[[record]]
molecule = "Cc1ncc(CNC(=O)N(CCCl)N=O)c(N)n1"
class_assignment = "NO"


---

- Test system: TAB113
- test details: qHTS profiling for inhibitors of Plasmodium falciparum proliferation (AID 504749); note: nearly all actives have a fitted effect of over 60% in size
- assay conditions: P. falciparum in erythrocytes, SYBR Green DNA, 72 h; series mostly up to 28.7 µM
- Description: NIH National Institute of Allergy and Infectious Diseases [NIAID] NIH Chemical Genomics Center [NCGC] […] Because mature erythrocytes lack DNA, only Plasmodium-derived DNA is detected. NCGC Assay Protocol Summary: The SYBR Green viability assay was adapted from a method described previously (Plouffe et al., 2008). […] The following morning, fluorescence intensity at 485(14) nm excitation and 535(25) nm emission wavelengths was measured on an EnVision (Perkin Elmer) plate reader. […]
Records with an inconclusive call do not appear. Activity calls are given as the source filed them. Calls come from the whole dose curve; as a rule, active = well fitted inhibition curve with a large enough effect; inconclusive = small, poorly fitted or top-dose-only effect; inactive = flat fitted curve, though single readings scatter.
Classes used: 1 for active, -1 for inactive

[[record]]
molecule = "CN1CCN(C(=O)O[C@H]2c3nccnc3C(=O)N2c2ccc(Cl)cn2)CC1"
class_assignment = -1

[[record]]
molecule = "Cc1ccc(-c2nc3ccc(C)cn3c2CC(=O)N(C)C)cc1"
class_assignment = -1

[[record]]
molecule = "CCN(CC)CCN1C(=O)CN=C(c2ccccc2F)c2cc(Cl)ccc21"
class_assignment = -1

[[record]]
molecule = "Clc1ccc(COC(Cn2ccnc2)c2ccc(Cl)cc2Cl)cc1 (stereo unspecified)"
class_assignment = 1

[[record]]
molecule = "CC(C)CC(N(C)C)C1(c2ccc(Cl)cc2)CCC1 (stereo unspecified)"
class_assignment = -1

[[record]]
molecule = "CCC(COC(=O)c1cc(OC)c(OC)c(OC)c1)(c1ccccc1)N(C)C (stereo unspecified)"
class_assignment = -1


---

- test details: qHTS profiling for inhibitors of Plasmodium falciparum (3D7) proliferation (AID 743322);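 note: infected erythrocytes exposed to compound for 72 h before lysis; 100% = DMSO vehicle wells and 0% = 0.29 µM artemisinin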
- assay conditions: P. falciparum 3D7 proliferation; at 28.7 µM (top of the series)
Quick reference for remaining parasite growth % (stronger effect = lower value) among some molecules
quantity kind: remaining parasite growth % (stronger effect = lower value) (%)

[[record]]
molecule = "Cn1c(CCCC(=O)O)nc2cc(N(CCCl)CCCl)ccc21"
numeric_readout = 92.7

[[record]]
molecule = "CNC(=O)N1N=C(c2ccc(N)cc2)c2cc3c(cc2CC1C)OCO3 (stereo not given)"
numeric_readout = 46.2

[[record]]
molecule = "Cc1sc2c(c1C)C(c1ccc(Cl)cc1)=N[C@@H](CC(=O)OC(C)(C)C)c1nnc(C)n1-2"
numeric_readout = 4.84

[[record]]
molecule = "CS(=O)c1ccc(-c2nc(-c3ccc(F)cc3)c(-c3ccncc3)[nH]2)cc1 (stereo not given)"
numeric_readout = 64.7

[[record]]
molecule = "COC[C@H]1OC(=O)c2coc3c2[C@@]1(C)C1=C(C3=O)C2CCC(=O)[C@@]2(C)C[C@H]1OC(C)=O (stereo not given in full)"
numeric_readout = 74.1


---

- test details: qHTS Assay for Identification of Small Molecule Antagonists for NFkB Signaling Pathway (AID 895)
- assay conditions: NFkB beta-lactamase reporter cells, FRET ratio 460/530; series mostly up to 38.3 µM
Records with an inconclusive call do not appear. Active and inactive are the calls of the source. Calls follow the shape of the dose curve; as a rule, active = well fitted inhibition curve with a large enough effect in the signal ratio, with a control signal flat (not every such curve was filed as active); inconclusive = small, poorly fitted or top-dose-only effect, or effect the other way, or a change in a side signal; inactive = flat fitted curve, though single readings scatter; the % refers to the signal ratio.
Classes used: active, inactive

[[record]]
compound = "NCC(CC(=O)O)c1ccc(Cl)cc1 (centres undefined)"
class_assignment = "active"

[[record]]
compound = "N[C@@H]1C[C@H]1c1ccccc1"
class_assignment = "inactive"

[[record]]
compound = "O=c1c(O)c(-c2ccc(O)c(O)c2)oc2cc(O)cc(O)c12"
class_assignment = "active"

[[record]]
compound = "Cc1ccc(S(=O)(=O)N[C@@H](CCCCN)C(=O)CCl)cc1"
class_assignment = "active"


---

- test details: A High-Content qHTS Against Drug Library for the Identification of Small Molecules that Inhibit DYT1 Early Onset Primary Dystonia-Associated Cell Pathology (AID 1645839)
- assay conditions: HEK293 Flp-In EGFP-delE TorsinA, punctate imaging, 48 h; series mostly up to 46.1 µM
Records with an inconclusive call do not appear. The source made the active and inactive calls. Calls come from the whole dose curve.
quantity kind: % pathology change, negative = correction

[[record]]
compound = "CCC(C(N)=O)N1CCCC1=O (stereo unspecified)"
result = "inactive"

[[record]]
compound = "Cn1c(CCCC(=O)O)nc2cc(N(CCCl)CCCl)ccc21"
result = "inactive"

[[record]]
compound = "O=C1CC[C@@]2(O)[C@H]3Cc4ccc(O)c5c4[C@@]2(CCN3CC2CC2)[C@H]1O5"
result = "inactive"

[[record]]
compound = "CCCC1CCCCN1 (stereo unspecified)"
result = "inactive"

[[record]]
compound = "COc1ccc(C(CN(C)C)C2(O)CCCCC2)cc1 (stereo unspecified)"
result = "inactive"

[[record]]
compound = "O=C1NCN(c2ccccc2)C12CCN(CC1COc3ccccc3O1)CC2 (stereo unspecified)"
result = "inactive"

